System: Caco-2
experimentDescription: cell viability relative to DMSO; higher = less toxic
details: 72 h; 10 nM
Each item that follows carries a reported cell viability.
Field format: number, assumed %, no unit text.

For orientation, consider the following solved cases.
O=C(Nc1ccc(Cl)cc1)Nc1cccc(-c2cccc(N3CCCC3)n2)c1 : 91.9
CCCC(=O)O[C@]1(C(=O)COC(C)=O)CC[C@H]2[C@@H]3C[C@H](F)C4=CC(=O)C=C[C@]4(C)[C@@]3(F)[C@@H](O)C[C@@]21C [difluprednate] : 93.2
NC(=O)c1cn(Cc2c(F)cccc2F)nn1 [rufinamide] : 97.4
COc1ccc(-c2ccc3c(N4CCOC[C@@H]4C)nc(N4CCOC[C@@H]4C)nc3n2)cc1CO : 88.2
Cc1cccc2c1CC[C@H](CN1CCC(c3c(Cl)cccc3Cl)CC1)C[C@@H]2O : 95.8
CC(C)(C)CC(C)(C)c1ccc(O)c(Cc2ccc(Cl)cc2Cl)c1 : 102

Short answer for `COC(=O)/C=C/C(=O)N[C@@H]1CC[C@@]2(O)[C@H]3Cc4ccc(O)c5c4[C@@]2(CCN3CC2CC2)[C@H]1O5` : cell viability was 91.5

Short answer for `N[C@H]1C[C@@H]1c1ccc(-c2cccc(O)c2)cc1` : cell viability was 100

Short answer for `C=CCC1(CC(C)C)C(=O)NC(=O)NC1=O` : cell viability was 114

* * *

Test system: HepG2
experimentDescription: cell viability relative to DMSO; higher = less toxic
details: 72 h; 10000 nM
propertyName: cell viability (%)
Field format: number, assumed %, no unit text.

CC(=O)[C@@]1(O)CC[C@H]2[C@@H]3C[C@H](C)C4=CC(=O)C=C[C@]4(C)[C@@]3(F)[C@@H](O)C[C@@]21C : 96.9
Cc1cc(Nc2ccc(NC(=O)c3ccc(Nc4ccnc5ccccc45)cc3)cc2)nc(N)n1 : -0.3

Short answer for `CC(=O)Nc1ccc(C(=O)NC(C)(C)C)cc1` : cell viability was 94.2

Short answer for `O=c1c2ccccc2oc2ccccc12` : cell viability was 93.6

Short answer for `Nc1c2ccccc2nc2ccccc12` : cell viability was 5.5

* * *

System: Calu-3
experimentDescription: cell viability relative to DMSO; higher = less toxic
details: 72 h; 10000 nM
propertyName: cell viability
Please answer using a numeric value trailed by its unit.

For orientation, consider the following solved cases.
CO[C@H]1C[C@H](O[C@H]2CC[C@@]3(C)[C@H](CC[C@@H]4[C@@H]3CC[C@]3(C)[C@@H](C5=CC(=O)OC5)[C@@H](OC(C)=O)C[C@]43O)C2)O[C@@H](C)[C@@H]1O [oleandrin] : 17.4%
COc1ccc([C@@H]2CC(=O)c3c(O)cc(O)cc3O2)cc1O [hesperetin] : 89.2%
O=[N+]([O-])c1ccccc1S(=O)(=O)NCC1CCC(CNC[C@H]2CCc3ccccc3C2)CC1 (some centres undefined) [NTNCB] : 15%

Short answer for CC(C)(Oc1ccc(C2CC2(Cl)Cl)cc1)C(=O)O (centres undefined) [ciprofibrate] : cell viability was 95.9%

Short answer for CN1C(=O)C(F)=C[C@]2(C)[C@H]3CC[C@]4(C)[C@@H](C(=O)NCc5nc6cccnc6[nH]5)CC[C@H]4[C@@H]3CC[C@@H]12 [MK-0773] : cell viability was 100%

Short answer for COc1ccc(Cl)cc1NC(=O)Nc1cc(C)nc2ccccc12 [PQ-401] : cell viability was 100%

Short answer for Cc1nc2c([nH]1)-c1ccccc1N(C(=O)c1ccc(NC(=O)c3ccccc3-c3ccccc3)cc1)CC2 [conivaptan] : cell viability was 96.6%

Short answer for CS(=O)(=O)c1ccc(-c2nnc(/C=C/c3nnc(-c4ccc(C#N)cc4)o3)n2-c2ccccc2Cl)nc1 [G007-LK] : cell viability was 77.2%

Short answer for CN1CCC(=C2c3ccccc3C=Cc3ccccc32)CC1 [cyproheptadine] : cell viability was 101%

Short answer for COc1cc(C[C@@H](CO)[C@H](CO)Cc2ccc(O)c(OC)c2)ccc1O [secoisolariciresinol-(-)] : cell viability was 92.4%

Short answer for COc1ccc(Nc2nccc(NCCO)n2)cc1 [cardiogenol-C] : cell viability was 102%

Short answer for Nc1c2ccccc2nc2ccccc12 [9-aminoacridine] : cell viability was 64.6%

Short answer for Fc1cc(F)c2c(c1)[C@H]1C=CC[C@H]1C(c1cccnc1)N2 (some centres undefined) [Golgicide A] : cell viability was 19%

Short answer for CC(=N)NCc1cccc(CN)c1 [1400W] : cell viability was 109%

Short answer for NC(=O)NCCC[C@H](N)C(=O)O [L-citrulline] : cell viability was 110%

Short answer for Clc1ccc(C(Cn2ccnc2)OCc2csc3c(Cl)cccc23)c(Cl)c1 (centres undefined) [sertaconazole] : cell viability was 96.1%

Short answer for CN1[C@@H]2CC[C@H]1C[C@@H](OC(c1ccccc1)c1ccccc1)C2 [benztropine-mesylate] : cell viability was 94.2%

Short answer for C[C@H]1O[C@@H](Oc2c(-c3cc(O)c(O)c(O)c3)oc3cc(O)cc(O)c3c2=O)[C@@H](O)[C@@H](O)[C@@H]1O [myricitrin] : cell viability was 94.4%

Short answer for Cc1c(-c2ccc(-c3ccccc3F)cc2)nc2ccc(F)cc2c1C(=O)O [brequinar] : cell viability was 99.6%

Short answer for CC(C)/N=c1\cc2n(-c3ccc(Cl)cc3)c3ccccc3nc-2cc1Nc1ccc(Cl)cc1 [clofazimine] : cell viability was 94.4%

Short answer for CO[C@@]1(NC(=O)CSC[C@@H](N)C(=O)O)C(=O)N2C(C(=O)O)=C(CSc3nnnn3C)CS[C@@H]21 [cefminox] : cell viability was 122%

Short answer for N=C(N)c1ccc(OCCCCCOc2ccc(C(=N)N)cc2)cc1 [pentamidine] : cell viability was 94.5%

Short answer for Nc1nc(Cl)nc2c1ncn2[C@@H]1O[C@H](CO)[C@@H](O)[C@H]1O [2-chloroadenosine] : cell viability was 84.5%
